List of IC50 values.
Tested on: H929 cells
Assay: Cell viability assay (H929 10 FBS)
Type: cell-based
Conditions: Homo sapiens, NCI-H929, 24 hours, read-out: H929_10FBS IC50

Worked examples, 2 compounds total:
CO[C@H]1/C=C/COC2(CC2)C(=O)NS(=O)(=O)c2ccc3c(c2)N(C[C@@H]2CC[C@H]21)C[C@@]1(CCCc2cc(Cl)ccc21)CO3	> 1 µM
CN(C)C(=O)O[C@H]1/C=C/CN(C)C(C)(C)C(=O)NS(=O)(=O)c2ccc3c(c2)N(C[C@@H]2CC[C@H]21)C[C@@]1(CCCc2cc(Cl)ccc21)CO3	< 0.5 µM

Now consider the entry below.
Q. Which value of IC50 has been reported for CO[C@@H]1/C=C/COCC(=O)NS(=O)(=O)c2ccc3c(c2)N(C[C@@H]2CC[C@H]21)C[C@@]1(CCCc2cc(Cl)ccc21)CO3 in the records?
A. > 1 µM
